- Measured target: TP (h) (TXA2/PGH2) (Homo sapiens, UniProt P21731)
- Construct: Cerep
- Sequence (P21731 whole entry): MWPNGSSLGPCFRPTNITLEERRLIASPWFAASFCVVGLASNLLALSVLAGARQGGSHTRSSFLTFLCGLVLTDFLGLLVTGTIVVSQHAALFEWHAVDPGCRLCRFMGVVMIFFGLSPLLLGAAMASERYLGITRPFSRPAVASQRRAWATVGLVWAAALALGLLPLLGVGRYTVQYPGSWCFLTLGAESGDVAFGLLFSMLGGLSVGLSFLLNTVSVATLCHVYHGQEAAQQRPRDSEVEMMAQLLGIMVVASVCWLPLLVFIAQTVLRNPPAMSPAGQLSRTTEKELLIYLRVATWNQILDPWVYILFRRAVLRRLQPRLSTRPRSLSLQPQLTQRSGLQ
- Protocol summary: Radioligand binding
- Recorded conditions: control compound; read-out: Control specific binding Ki
Reported endpoint: Ki (nM)
Your answer should be a plain number; it is taken to be in nM.

So what does the record say about Ki for CCCCC[C@H](O)/C=C/[C@H]1[C@@H]2CO[C@@H](C2)[C@@H]1C/C=C\CCCC(=O)O [U 44069, reference compound] ?
6.2

---

Each record here notes measured Share of metabolite from the total combined metabolite peak area.
- Protocol summary: In vitro metabolism in liver microsomes
- Recorded conditions: SC83288 metabolites, Rat
Your answer should be a plain number; it is taken to be in %.

Illustrative cases are given below, each with its answer.
So what does the record say about Share of metabolite from the total combined metabolite peak area for COC(=O)N1CCN(C(=N)c2cccc(NC(=O)Nc3ccc(S(N)(=O)=O)cc3)c2)CC1 ?
69

So what does the record say about Share of metabolite from the total combined metabolite peak area for N=C(c1cccc(NC(=O)Nc2ccc(S(N)(=O)=O)cc2)c1)N1CCNCC1 [metabolite 2] ?
0.3

So what does the record say about Share of metabolite from the total combined metabolite peak area for N=C(c1cccc(NC(=O)Nc2ccc(S(=O)(=O)NCc3ccc(S(N)(=O)=O)cc3)cc2)c1)N1CCN(C=O)CC1 ?
0.6

---
So what does the record say about Share of metabolite from the total combined metabolite peak area for N=C(c1cccc(NC(=O)Nc2ccc(S(=O)(=O)NCc3ccc(S(N)(=O)=O)cc3)cc2)c1)N1CCNCC1 [Metabolite 1] ?
19.7

---

- Protocol summary: PK study
- Type: in vivo, cynomolgus
- Recorded conditions: cynomolgus monkey, plasma, iv; cynomolgus i.v. 2 mg kg^−1; read-out: MRT0-t
Reported endpoint: MRT last (h)
Your answer should be a plain number; it is taken to be in h.

So what does the record say about MRT last for COC(=O)N1CCN(C(=N)c2cccc(NC(=O)Nc3ccc(S(=O)(=O)NCc4ccc(S(N)(=O)=O)cc4)cc3)c2)CC1 [SC83288] ?
1.5

---

- Protocol summary: Solubility in phosphate buffer
- Assay type: physicochemical
- Recorded conditions: pH 9, aqueous buffer
Each record here notes measured solubility.
Show the value, then the unit it is measured in.

So what does the record say about solubility for CCCCN1CCN(C(=N)c2cccc(NC(=O)Nc3ccc(S(=O)(=O)NCc4ccc(S(N)(=O)=O)cc4)cc3)c2)CC1 ?
400 µM

Could you now look at the following compound, please?
So what does the record say about solubility for COC(=O)N1CCN(C(=N)c2cccc(NC(=O)Nc3ccc(S(=O)(=O)NCc4ccc(S(N)(=O)=O)cc4)cc3)c2)CC1 ?
800 µM

---

- Protocol summary: PK study
- Type: in vivo, mouse
- Recorded conditions: mouse, plasma, ip, 10 mg/kg, mice, i.p. 2.5, 5.0 and 10.0 mg kg^−1; read-out: effective half time t1/2
Reported endpoint: half-life

So what does the record say about half-life for COC(=O)N1CCN(C(=N)c2cccc(NC(=O)Nc3ccc(S(=O)(=O)NCc4ccc(S(N)(=O)=O)cc4)cc3)c2)CC1 ?
29 to 55 min

---

- Protocol summary: PK study
- Type: in vivo
- Recorded conditions: beagle, plasma, iv; dog i.v. 1.7 mg kg^−1
Reported endpoint: Cmax (µg/mL)
Your answer should be a plain number; it is taken to be in µg/mL.

So what does the record say about Cmax for COC(=O)N1CCN(C(=N)c2cccc(NC(=O)Nc3ccc(S(=O)(=O)NCc4ccc(S(N)(=O)=O)cc4)cc3)c2)CC1 ?
4.56

---

- Measured target: Ca2+ channel (L, verapamil site)
- Protocol summary: Radioligand binding
- Recorded conditions: control compound; read-out: Control specific binding Ki
Reported endpoint: pKi
When answering, recall that pKi equals minus log10 of the concentration in mol/L, and write that number alone.

Param readout= pKi; system= Ca2+ channel (L, verapamil site); entry= COc1ccc(CCN(C)CCCC(C#N)(c2cc(OC)c(OC)c(OC)c2)C(C)C)cc1OC (stereo not shown) [D 600, reference compound] ; returns value.
7.47

---

- Protocol summary: PK study
- Type: in vivo, mouse
- Recorded conditions: plasma, iv; mouse i.v. 2 mg kg^−1
Reported endpoint: clearance (mL/min/kg)
Your answer should be a plain number; it is taken to be in mL/min/kg.

So what does the record say about clearance for COC(=O)N1CCN(C(=N)c2cccc(NC(=O)Nc3ccc(S(=O)(=O)NCc4ccc(S(N)(=O)=O)cc4)cc3)c2)CC1 ?
37.4

---

- Measured target: CYP2E1 (Homo sapiens)
- Sequence (P05181 whole entry): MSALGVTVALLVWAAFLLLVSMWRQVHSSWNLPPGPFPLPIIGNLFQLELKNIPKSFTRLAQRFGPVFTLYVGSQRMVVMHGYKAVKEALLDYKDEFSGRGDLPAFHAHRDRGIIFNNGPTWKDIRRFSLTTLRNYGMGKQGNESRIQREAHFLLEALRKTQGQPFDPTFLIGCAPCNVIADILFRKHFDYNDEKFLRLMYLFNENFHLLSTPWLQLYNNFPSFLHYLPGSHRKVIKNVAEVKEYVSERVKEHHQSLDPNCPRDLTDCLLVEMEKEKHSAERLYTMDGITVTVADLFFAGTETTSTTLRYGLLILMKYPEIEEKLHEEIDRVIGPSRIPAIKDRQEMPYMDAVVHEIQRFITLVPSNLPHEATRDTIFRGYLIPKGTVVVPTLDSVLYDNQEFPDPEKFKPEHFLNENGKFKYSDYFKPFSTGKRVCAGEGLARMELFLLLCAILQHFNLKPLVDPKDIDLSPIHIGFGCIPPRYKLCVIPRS
- Protocol summary: CYP inhibition, human liver microsomes
- Recorded conditions: human, pooled liver microsomes, pH 7.4, probe chlorzoxazone (10 μM)
Reported endpoint: inhibition at 20 min, 10 µM (%)
Your answer should be a plain number; it is taken to be in %.

So what does the record say about inhibition at 20 min, 10 µM for COC(=O)N1CCN(C(=N)c2cccc(NC(=O)Nc3ccc(S(=O)(=O)NCc4ccc(S(N)(=O)=O)cc4)cc3)c2)CC1 ?
30

---

- Test system: P. falciparum strain Dd2
- Protocol summary: Growth inhibition assay, asexual blood stages
- Assay type: cell-based, Plasmodium falciparum
- Recorded conditions: Plasmodium falciparum, DD2, 72 h, Dd2, standard proliferation assay, 72 h exposure
Reported endpoint: IC50 (nM)
Your answer should be a plain number; it is taken to be in nM.

So what does the record say about IC50 for N=C(N)c1cccc(NC(=O)Nc2ccc(S(=O)(=O)NCc3ccc(S(N)(=O)=O)cc3)cc2)c1 ?
10

---

- Measured target: a1 (non-selective)
- Protocol summary: Radioligand binding
- Recorded conditions: control compound; read-out: Control specific binding IC50
Reported endpoint: pIC50
When answering, recall that pIC50 equals minus log10 of the concentration in mol/L, and write that number alone.

So what does the record say about pIC50 for COc1cc2nc(N3CCN(C(=O)c4ccco4)CC3)nc(N)c2cc1OC [prazosin, reference compound] ?
9.09

---

- Protocol summary: PK study
- Format: in vivo, mouse
- Recorded conditions: mouse, plasma, ip, 20 mg/kg, mouse i.p. 20 mg kg^−1; read-out: t1/2 terminal
Reported endpoint: half-life

So what does the record say about half-life for CCCCN1CCN(C(=N)c2cccc(NC(=O)Nc3ccc(S(=O)(=O)NCc4ccc(S(N)(=O)=O)cc4)cc3)c2)CC1 ?
14.3 h

---

- Protocol summary: in vivo
- Format: in vivo, rat
- Recorded conditions: rat, in vivo, iv; rats, 15 mg kg^−1 i.v. bolus (NOEL); read-out: extrapolated C0
Reported endpoint: C0 (ng/mL)
Your answer should be a plain number; it is taken to be in ng/mL.

So what does the record say about C0 for COC(=O)N1CCN(C(=N)c2cccc(NC(=O)Nc3ccc(S(=O)(=O)NCc4ccc(S(N)(=O)=O)cc4)cc3)c2)CC1 ?
32800

---

- Protocol summary: PK study
- Assay type: in vivo, rat
- Recorded conditions: rat, plasma, po; rats
Reported endpoint: bioavailability (%)
Your answer should be a plain number; it is taken to be in %.

So what does the record say about bioavailability for N=C(N)c1cccc(NC(=O)Nc2ccc(S(=O)(=O)NCc3ccc(S(N)(=O)=O)cc3)cc2)c1 ?
3

---

- Protocol summary: In vitro metabolism in liver microsomes
- Recorded conditions: SC83288 metabolites, Human
Each record here notes measured Share of metabolite from the total combined metabolite peak area.
Your answer should be a plain number; it is taken to be in %.

Illustrative cases are given below, each with its answer.
So what does the record say about Share of metabolite from the total combined metabolite peak area for N=C(c1cccc(NC(=O)Nc2ccc(S(=O)(=O)NCc3ccc(S(N)(=O)=O)cc3)cc2)c1)N1CCNCC1 [Metabolite 1] ?
13.3

So what does the record say about Share of metabolite from the total combined metabolite peak area for N=C(c1cccc(NC(=O)Nc2ccc(S(=O)(=O)NCc3ccc(S(N)(=O)=O)cc3)cc2)c1)N1CCN(C=O)CC1 [SC83288 M8] ?
0.1

So what does the record say about Share of metabolite from the total combined metabolite peak area for COC(=O)N1CCN(C(=N)c2cccc(NC(=O)Nc3ccc(S(N)(=O)=O)cc3)c2)CC1 [SC83288 M9] ?
82

---
So what does the record say about Share of metabolite from the total combined metabolite peak area for N=C(c1cccc(NC(=O)Nc2ccc(S(N)(=O)=O)cc2)c1)N1CCNCC1 [metabolite 2] ?
0.3

---

- Protocol summary: PK study
- Format: in vivo, mouse
- Recorded conditions: mouse, plasma, iv, 2 mg/kg, mouse i.v. 2 mg kg^−1; read-out: t1/2 terminal
Reported endpoint: half-life
Show the value, then the unit it is measured in.

So what does the record say about half-life for COC(=O)N1CCN(C(=N)c2cccc(NC(=O)Nc3ccc(S(=O)(=O)NCc4ccc(S(N)(=O)=O)cc4)cc3)c2)CC1 [SC83288] ?
43 min

---

- Protocol summary: PK study
- Type: in vivo, mouse
- Recorded conditions: plasma, ip; mouse i.p. 20 mg kg^−1; read-out: MRT0-t
Reported endpoint: MRT last (h)
Your answer should be a plain number; it is taken to be in h.

So what does the record say about MRT last for CCCCN1CCN(C(=N)c2cccc(NC(=O)Nc3ccc(S(=O)(=O)NCc4ccc(S(N)(=O)=O)cc4)cc3)c2)CC1 ?
1.24
